Please respond with reported protein stability index for every item in the list.
B1: VTI1B (parent)
chain: ANETLAEMEEELRYAPLSFRNPMM

- Variants of: B1
- test_summary: protein stability index of a GFP-peptide fusion (GPS, HEK-293T) (PSI 1-6); higher = more stable;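 also: lentivirally expressed fusions sorted by FACS into six bins by GFP to DsRed ratio, PSI derived from sequencing read proportions per bin multiplied by bin number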
- settings: c terminus: a fixed tail appended
Give bare numbers.

Example results:
L5N :: 3.05
N2T :: 2.19

Answer for every listed entry: what is its protein stability index? The entries follow.
1. P16M
2. A15M
3. R13D
4. N2Q
5. T4D

Output:
[1.77, 1.53, 3.02, 2.27, 2.33]
